Entries and their measured Flow S/N follow.
- target of assay: T1, full-length human GLP1R on HEK293/CRE-Luc/hGLP1R cells (human, UniProt P43220 24-463)
- T1 construct: whole, on cells
- method notes: flow cytometry, hGLP1R cells
Supply the numeric figure in fold, leaving out any unit text.

Examples with their reported Flow S/N follow.
binder	value
REGN8070-M3190 (antibody, human IgG4 S228P, kappa, V domains shown, linker-payload M3190 (LP11) on Gln 3 of the N-terminal Q-tag LLQGSG, antibody-tethered drug conjugate; also called REGN8070 ATDC) VH: QVQLVESGGGVGQPGRSLRLSCAASGFTFSRNAMHWVRQAPGKGLEWVAVISYDGSNKHYADSVKGRFTISRDNSKNTLYLEMNSLRVEDTAVYYCAKGGIPFDYWGQGTLVTVSS VL: DIVMTQSPLSSPVTLGQPASISCRSSQSLVHFDGNTYLSWLHQRPGQPPRLLIYKISNRFSGVPDRFSGSGAGTDFTLKISRVEPEDVGVYYCMHATQFPYTFGQGTKLEIKR	166
REGN8070 (antibody, human IgG4 S228P, kappa, V domains shown, IgG4; Q-tag on light chain N-terminus; also called mAb 16; REGN8070 unconjugated Ab) VH: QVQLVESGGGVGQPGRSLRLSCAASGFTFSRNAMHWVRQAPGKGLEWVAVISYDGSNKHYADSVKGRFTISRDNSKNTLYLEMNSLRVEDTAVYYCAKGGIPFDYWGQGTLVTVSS VL: DIVMTQSPLSSPVTLGQPASISCRSSQSLVHFDGNTYLSWLHQRPGQPPRLLIYKISNRFSGVPDRFSGSGAGTDFTLKISRVEPEDVGVYYCMHATQFPYTFGQGTKLEIKR	322
REGN8051 (antibody, V domains shown, parental antibody without Q-tag; also called parent of REGN8070) VH: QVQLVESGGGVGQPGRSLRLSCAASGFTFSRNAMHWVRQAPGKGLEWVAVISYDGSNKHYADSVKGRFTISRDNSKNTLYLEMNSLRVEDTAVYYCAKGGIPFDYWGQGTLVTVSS VL: DIVMTQSPLSSPVTLGQPASISCRSSQSLVHFDGNTYLSWLHQRPGQPPRLLIYKISNRFSGVPDRFSGSGAGTDFTLKISRVEPEDVGVYYCMHATQFPYTFGQGTKLEIK	560
H2aM30341N (antibody, V domains shown, parent of H4H30341N (REGN9278 without Q-tag); also called parent of REGN9278) VH: QVQLQQWGAGLLKPSETLSLTCAVYGGSFSGYYWSWIRQPPGKGLEWIGEINHAGSTNYNPSLKSRITISVDTSKNQFSLKLSSVTAADTAVYYCARGWYYGSGSYHRNWFDPWGQGTLVTVSS VL: EIVLTQSPGTLSLSPGERATLSCRASQSVYYSYLAWYQQKPGQAPRLLIYGASNRATGIPDRFSGSGSGTDFTLTISRLEPEDFAVYYCQQYGNSPWTFGQGTKVEIK	595
REGN8072-M3190 (antibody, human IgG4 S228P, kappa, V domains shown, linker-payload M3190 (LP11) on Gln 3 of the N-terminal Q-tag LLQGSG, antibody-tethered drug conjugate; also called REGN8072 ATDC; anti-GLP1R mAb4-LP11) VH: QVQLVESGGGVVQPARSLRLSCAASGFAFSRSAMHWVRQAPGKGLEWVAVISYDGSNKYYTDSVKGRFTISRDNSKNTLYLQMNTLRAEDTALYYCAKMYTTMDSFDYWGQGTLVTVSS VL: DIQLTQSPSFLSASVGDRVTITCWASQGISSYLAWYQQKPGKAPKLLIYAASTLQSGVPSRFSGSGSGTEFTLTISSLQPEDFALYYCQQLNSYPRTFGQGTKVEIKR	173

Query: Report Flow S/N, nothing else, for this binder: REGN9278 (antibody, human IgG4 S228P, kappa, V domains shown, IgG4; Q-tag on light chain N-terminus; also called mAb 19; REGN9278 unconjugated Ab) VH: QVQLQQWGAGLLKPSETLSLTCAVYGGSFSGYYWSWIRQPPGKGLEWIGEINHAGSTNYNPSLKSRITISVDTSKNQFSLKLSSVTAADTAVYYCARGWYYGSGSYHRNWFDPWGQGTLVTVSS VL: EIVLTQSPGTLSLSPGERATLSCRASQSVYYSYLAWYQQKPGQAPRLLIYGASNRATGIPDRFSGSGSGTDFTLTISRLEPEDFAVYYCQQYGNSPWTFGQGTKVEIKR
Result: 436
